Where do the numbers come from? From PubChem BioAssay (NCI).

- Tested on: OVCAR-8 ovarian
- ASSAY_TEXT: NCI-60 one-dose screen, 48 h
- CONDITION_SUMMARY: 10 µM unless noted
About 83,000 compounds went through this panel and 20% of them were active in at least one assay; those are over-represented in the sample as a whole. Activity calls are given as the source filed them. The calls were made as follows: active = growth percent below 10; inactive = the rest.
Allowed answers: y = active, n = inactive

Reference set, count: 10
{"MOLECULE": "Cc1cc2c(c(C)c1Cl)C(=O)/C(=C/c1ccco1)O2", "LABEL_CLASS": "n"}
{"MOLECULE": "CCCCC1CCc2cccc3c(SCC(=O)N(C)c4ccc(Cl)cc4)cc[n+]1c23 (stereo not given)", "LABEL_CLASS": "n"}
{"MOLECULE": "COc1ccc(Nc2cc(C)nc(NCc3ccccc3)n2)cc1", "LABEL_CLASS": "n"}
{"MOLECULE": "Nc1nc(Nc2cccc(F)c2)nc2ccccc12", "LABEL_CLASS": "n"}
{"MOLECULE": "CCCCc1ccc(NS(=O)(=O)c2cc3c4c(c2)CCN4C(=O)CC3)cc1", "LABEL_CLASS": "n"}
{"MOLECULE": "CC(C)[C@H](NC(=O)Cn1cc(C(=O)O)nn1)C(=O)O", "LABEL_CLASS": "n"}
{"MOLECULE": "O=c1oc2ccc(Br)cc2c(=O)n1-c1ccc(Br)cc1F", "LABEL_CLASS": "n"}
{"MOLECULE": "N[C@@H](CC/[N+]([O-])=N/O)C(=O)O", "LABEL_CLASS": "n"}
{"MOLECULE": "COC(=O)/C(CCC=C(C)C)=C1\\[C@@H](OC(C)=O)C[C@@]2(C)[C@H]1CC(=O)[C@H]1[C@@]3(C)CC[C@H](NCc4ccccc4)[C@@H](C)[C@@H]3CC[C@@]12C", "LABEL_CLASS": "n"}
{"MOLECULE": "CCN(CC)CCNC(=O)C(Cl)=C1C(Cl)=C(Cl)C(Cl)=C1Cl", "LABEL_CLASS": "n"}

Okay, next one:
Would you mind telling me which call this test gave CCC(C)(C)C(=O)O[C@H]1C[C@@H](C)C=C2C=C[C@H](C)[C@H](CC[C@@H]3CC=CC(=O)O3)[C@H]21 ?
n
